The values you see were collected from PubChem BioAssay AID1213.

- test-target: G-protein coupled estrogen receptor 1 (Homo sapiens) (UniProt Q99527)
- test-name: GPR30 agonists and antagonists by calcium flux, primary screen, HL-60 cells, Indo-1 fluorescence, 10 µM (AID 1213)
- recorded-conditions: Indo-1 calcium mobilization, measured here: antagonist mode response, at 10 µM
Results filed as inconclusive are left out.
Listed here are compounds together with their documented inhibition of estrogen-induced calcium mobilization (higher = more inhibition).
Output spec: scalar in %, unitless text.

Please review the entries below; each comes with its answer.
| compound | test-target | units | value-observed |
| --- | --- | --- | --- |
| Cc1cc(C)c2c(c1)[C@@H]1C=CC[C@@H]1[C@H](c1ccc(S(=O)(=O)N3CCOCC3)cc1)N2 | G-protein coupled estrogen receptor 1 (Homo sapiens) (UniProt Q99527) | % | 100 |
| FC(F)(F)c1ccc2c(c1)C1C=CCC1C(c1ccncc1)N2 (stereo not given) | G-protein coupled estrogen receptor 1 (Homo sapiens) (UniProt Q99527) | % | 50 |
| CCC(=O)Oc1ccc(/C(CC)=C(\CC)c2ccc(OC(=O)CC)cc2)cc1 | G-protein coupled estrogen receptor 1 (Homo sapiens) (UniProt Q99527) | % | 50 |
| Cc1ccc2c(c1)C1C=CCC1C(C(=O)O)N2 (stereo not given) | G-protein coupled estrogen receptor 1 (Homo sapiens) (UniProt Q99527) | % | 50 |
| Cc1ccc2c(c1C)NC(C(=O)O)C1CC=CC21 (stereo not given) | G-protein coupled estrogen receptor 1 (Homo sapiens) (UniProt Q99527) | % | 100 |
| O=C1NC(c2ccc(Br)cc2)Nc2sc3c(c21)CCC3 (stereo not given) | G-protein coupled estrogen receptor 1 (Homo sapiens) (UniProt Q99527) | % | 50 |
| COc1ccc(C(=O)N/N=C(\C)c2ccc3c(c2)C2C=CCC2C(c2ccccc2)N3)cc1 (stereo not given) | G-protein coupled estrogen receptor 1 (Homo sapiens) (UniProt Q99527) | % | 50 |
| Cc1c(Cl)cccc1NS(=O)(=O)c1ccc2c(c1)C1C=CCC1C(c1ccc(C(=O)O)cc1)N2 (stereo not given) | G-protein coupled estrogen receptor 1 (Homo sapiens) (UniProt Q99527) | % | 100 |

Query: inhibition of estrogen-induced calcium mobilization (higher = more inhibition); subject: O=C(O)c1ccc2c(c1)C1C(Cl)C(Sc3ccccc3[N+](=O)[O-])CC1C(c1cccc([N+](=O)[O-])c1)N2 (stereo not given) 100

Query: inhibition of estrogen-induced calcium mobilization (higher = more inhibition); subject: CC(C)C1Nc2ccc(C(=O)O)cc2C2C=CCC21 (stereo not given) 100
